Where do the numbers come from? From patent US8853412B2.

- TEST_SYSTEM: human GPR119 (Homo sapiens, UniProt Q8TDV5)
- Sequence (Q8TDV5 whole entry): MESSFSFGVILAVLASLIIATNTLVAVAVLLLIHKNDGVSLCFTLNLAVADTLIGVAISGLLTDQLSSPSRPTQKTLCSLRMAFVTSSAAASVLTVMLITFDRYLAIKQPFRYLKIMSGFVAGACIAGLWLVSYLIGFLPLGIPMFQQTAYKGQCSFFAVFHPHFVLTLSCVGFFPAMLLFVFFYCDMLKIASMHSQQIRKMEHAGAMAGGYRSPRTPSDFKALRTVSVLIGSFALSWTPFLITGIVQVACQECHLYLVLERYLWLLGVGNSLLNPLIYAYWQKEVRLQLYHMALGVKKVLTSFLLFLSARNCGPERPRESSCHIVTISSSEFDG
- EXPERIMENT_DESCRIPTION: Functional cellular assay measuring GPR119-mediated cAMP release (HTRF), HEK-293 cells stably expressing recombinant GPR119
- ASSAY_CONDITIONS: cell line expressing human GPR119; cAMP response, 30 minutes at room temperature
- Method: Functional Cellular Assays Measuring GPR119-Mediated cAMP Release. Compounds of the invention, which are agonists of GPR119, were characterized by functional assays measuring the cAMP response of HEK-293 cell lines stably expressing recombinant GPR119 from man, mouse or rat, or by using a hamster cell line HIT-T15 expressing GPR119 endogenously. The cAMP content was determined using a kit based on homogenous time-resolved fluorescence (HTRF) from Cisbio Corp. (cat. no. 62AM4PEC). […]
Kindly state EC50 for each of the entries shown.
Numbers only, in µM.

The examples below pair each entry with its known result.
COMPOUND: COCC(C)Oc1ccc(O[C@@H]2CCN(c3cc(F)c4c(c3)C(=O)CC4)C2=O)cn1 (stereo partly shown)
MEASUREMENT_LABEL: EC50
REPORTED: 0.077
//
COMPOUND: CCSc1ccc(O[C@@H]2CCN(c3cc(F)c4c(c3)C(=O)CC4)C2=O)cn1
MEASUREMENT_LABEL: EC50
REPORTED: 0.07
//
COMPOUND: O=C1CCc2c(F)cc(N3CC[C@@H](Oc4ccc(O[C@H]5CCOC5)nc4)C3=O)cc21
MEASUREMENT_LABEL: EC50
REPORTED: 0.09

Let us move to another entry and its EC50.
Tell me the measured EC50 of O=C1CCc2c(F)cc(N3CC[C@@H](Oc4ccc(Oc5ccc(F)cc5)cc4)C3=O)cc21 , please. 0.033
